- System: NCI/ADR-RES ovarian
- assayRemarks: NCI-60 one-dose screen, 48 h (100 = growth as untreated, 0 = no growth, -100 = all killed)
- protocolConditions: 10 µM unless noted
The panel holds about 83,000 compounds, 20% with a hit somewhere; the sample as a whole holds those more often. The source made the active and inactive calls. How the source made its calls: active means growth percent below 10; inactive means the rest.
recordedMetric: growth

Known results for molecules:
ClC1=C(Cl)C(=C2C(Cl)=C(Cl)C(Cl)=C2Cl)C(Cl)=C1Cl = 105% (inactive)
Nc1ccc2c(c1)/C(=N/O)c1cc([N+](=O)[O-])ccc1-2 = 109% (inactive)
CC(C)COCC(CN(Cc1ccccc1)c1ccccc1)N1CCCC1 (stereo unspecified) = 65.2% (inactive)
CCN1C(=O)c2ccc3c4c(ccc(c24)C1=O)C(=O)N(CCCNCc1ccccc1OC)C3=O = 4.44% (active)

Quick batch: growth for everything below.
1. Cn1cc(-c2nc(-c3c[nH]c4ncc(F)cc34)cs2)c2cccnc21
2. O=C(Nc1ccc(OCc2nnc(-c3ccccc3)o2)c(F)c1)Nc1ccc(Cl)c(C(F)(F)F)c1
3. CC(=O)c1ccc2c3c(n(C)c2c1)CCCC3
4. Cc1cc(C)c2c(c1)N1OC(C2)C[C@H]1/C=C/c1ccccc1 (stereo partly specified)

["100% (inactive)", "17.8% (inactive)", "96.9% (inactive)", "95.9% (inactive)"]

Your task in this section: give growth for each listed record.
1. O=C(CSc1nnc(Nc2ccccc2)s1)NCCc1ccc(F)cc1
2. Clc1ncn[nH]1
3. COc1ccc2[nH]cc(/C=C3/C(=O)Nc4ccc(Cl)cc43)c2c1

1: 99.3% (inactive); 2: 106% (inactive); 3: 49.6% (inactive)

====

- System: LOX IMVI melanoma
- assayRemarks: NCI-60 one-dose screen, 48 h (100 = growth as untreated, 0 = no growth, -100 = all killed)
- protocolConditions: 10 µM unless noted
The panel holds about 83,000 compounds, 20% with a hit somewhere; the sample as a whole holds those more often.
recordedMetric: growth (%)
One number for each entry, in %.

Cc1c(C(N)=O)sc2c1c(=O)n(Cc1ccccc1)c1nnc(SCC(=O)Nc3ccc(Cl)cc3)n21 = 41.8

State recorded growth for all listed compounds.
1. COc1ccc(-c2cc(C(=O)Nc3nc4cc(C)c(C)cc4s3)nc3cc(-c4ccccc4)nn23)cc1OC
2. C=C(C)[C@H]1CC/C(C)=C/CC[C@]2(C)O[C@H]2CC/C(COC(C)=O)=C\C1=O
3. NS(=O)(=O)c1ccc(NC2=C(Cl)C(=O)c3ccccc3C2=O)cc1
4. NNC(=O)NO

1: 95.1; 2: 88.1; 3: 53.7; 4: 97.7

====

- Test system: NCI-H23 lung
- assayRemarks: NCI-60 one-dose screen, 48 h (100 = growth as untreated, 0 = no growth, -100 = all killed)
- protocolConditions: 10 µM unless noted
Compounds without any hit were thinned out: in the full panel of roughly 83,000, 20% have a hit.
Response field class: enum, chosen by comparing growth against range A = under 60%, range B = from 60% up to 90%, range C = 90% and over

Cc1c(C(N)=O)sc2c1c(=O)n(Cc1ccccc1)c1nnc(SCC(=O)Nc3ccc(Cl)cc3)n21 = range A
CCC(CC)NCCCCCNc1cc(OC)cc2cccnc12 = range C
N#CCNc1ccccc1N = range B
C=Cc1nn2c(CCC(=O)c3nc4ccccc4[nH]3)nnc2s1 = range C

Returns: class label. Input: CC[C@]1(O)CC2CN(CCc3c([nH]c4ccccc34)[C@@](C(=O)OC)(c3cc4c(cc3OC)N(C)[C@H]3[C@@](O)(C(=O)OC)[C@H](OC(C)=O)[C@]5(CC)C=CCN6CC[C@]43[C@@H]65)C2)C1 (stereo not given in full)
range A

Same again, this time with Nc1ccccc1-c1ccc([N+](=O)[O-])cc1
range B

Same question for Cc1nn(-c2ccccc2)c2ncc3c(c12)C(=O)N(Cc1ccccc1)C3=O please.
range B

Entry S=C(Nc1ccc(C2=NCCN2)cc1)Nc1ccc(C2=NCCN2)cc1 please
range B

And what about the compound Cn1c(=O)c2c(nc(Br)n2CCC(=O)Nc2ccc(F)cc2)n(C)c1=O ?
range C

Next compound up: Cc1cc2cn3c4cccnc4[nH]c(=O)c3c2cc1C
range A
